Values compiled from patent US20260042764A1.

- test target: Avi-KRAS WT (1-169) GppNHp/RAF1 RBD-3xFLAG (52-151) (Homo sapiens)
- Construct: Avi-KRAS WT (1-169)
- protocol: Raf1-KRAS WT-GppNHP disruption HTRF assay (Biological Example 1)
- Format: binding
- experimental parameters: KRAS WT, GppNHp-loaded; class symbols
pIC50: −log10 of the molar value.
Would you mind telling me the reported pIC50 of each entry?

Provide reported pIC50 for each item, in the same order as listed.
1. CC(=O)N1CC[C@H](N(c2nc(OC[C@@]34CCCN3C[C@H](F)C4)nc3c(F)c(-c4ccc(F)c5sc(N)c(C#N)c45)c(C(F)(F)F)cc23)C2CC2)C1 (atropisomer, axis not shown)
2. CCN(c1nc(OC[C@@]23CCCN2C[C@H](F)C3)nc2c(F)c(-c3ccc(F)c4sc(N)c(C#N)c34)c(C(F)(F)F)cc12)[C@H]1CCN(C(=O)N(C)C)[C@H]1C (atropisomer, axis not shown)
3. CCN(c1nc(OC[C@@]23CCCN2C[C@H](F)C3)nc2c(F)c(-c3ccc(F)c4sc(N)c(C#N)c34)c(C(F)(F)F)cc12)[C@H]1C[C@H](C)N(C(=O)OC)C1 (atropisomer, axis not shown)
4. CCN(c1nc(OC[C@@]23CCCN2C[C@H](F)C3)nc2c(F)c(-c3ccc(F)c4sc(N)c(C#N)c34)c(C(F)(F)F)cc12)[C@@H]1CCN(C(=O)[C@@H]2CC2(F)F)[C@@H]1C (atropisomer, axis not shown)
5. CN(C)C(=O)N1CC[C@H](N(c2nc(OC[C@@]34CCCN3C[C@H](F)C4)nc3c(F)c(-c4ccc(F)c5sc(N)c(C#N)c45)c(C(F)(F)F)cc23)C2CC2)C1 (atropisomer, axis not shown)

Output:
["6.00 to 7.00", "5.00 to 6.00", "> 7.00", "> 7.00", "6.00 to 7.00"]

* * *

- test target: Avi-KRAS G12D (1-169) GppNHp/RAF1 RBD-3xFLAG (52-151) (Homo sapiens, UniProt P01116, G12D)
- Construct: Avi-KRAS G12D (1-169)
- Sequence (P01116 1-169 isoform P01116-2 G12D): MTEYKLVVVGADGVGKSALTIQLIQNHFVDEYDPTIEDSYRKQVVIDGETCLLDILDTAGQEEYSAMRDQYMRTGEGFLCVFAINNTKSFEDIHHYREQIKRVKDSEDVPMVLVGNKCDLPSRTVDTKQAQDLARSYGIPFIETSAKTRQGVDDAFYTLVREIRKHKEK
- protocol: Raf1-KRAS G12D-GppNHP disruption HTRF assay (Biological Example 1)
- Format: binding
- experimental parameters: KRAS G12D-GppNHp/RAF1 RBD HTRF
pIC50: −log10 of the molar value.
measured attribute: pIC50

response.value for CCN(c1nc(OC[C@@]23CCCN2C[C@H](F)C3)nc2c(F)c(-c3ccc(F)c4sc(N)c(C#N)c34)c(C(F)(F)F)cc12)[C@H]1CCN(C(=O)N(C)C)C1 (field: pIC50) = > 7.00

Memo: CN1C[C@@H](N(C)c2nc(OC[C@@]34CCCN3C[C@H](F)C4)nc3c(F)c(-c4ccc(F)c5sc(N)c(C#N)c45)c(C(F)(F)F)cc23)CCC1=O , reported pIC50: 6.00 to 7.00

Here is the next item to consider.
For this molecule ( C[C@H]1CN(c2nc(OC[C@@]34CCCN3C[C@H](F)C4)nc3c(F)c(-c4ccc(F)c5sc(N)c(C#N)c45)c(C(F)(F)F)cc23)Cc2cc(C(=O)N(C)C)nn21 ), measured pIC50 is 6.00 to 7.00

* * *

Provide the recorded pIC50 for the entries that follow.
- test target: Avi-KRAS G12R (1-169) GppNHp/RAF1 RBD-3xFLAG (52-151) (Homo sapiens, UniProt P01116, G12R)
- Construct: Avi-KRAS G12R (1-169)
- Sequence (P01116 1-169 isoform P01116-2 G12R): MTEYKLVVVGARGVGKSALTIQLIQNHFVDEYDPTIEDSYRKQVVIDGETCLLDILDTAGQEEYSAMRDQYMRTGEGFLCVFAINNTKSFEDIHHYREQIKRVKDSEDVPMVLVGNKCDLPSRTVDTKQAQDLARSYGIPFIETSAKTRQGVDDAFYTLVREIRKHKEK
- protocol: Raf1-KRAS G12R-GppNHP disruption HTRF assay (Biological Example 1)
- Type: binding
- experimental parameters: KRAS G12R, GppNHp-loaded; Table 11
pIC50: −log10 of the molar value.

Recorded results for 2 molecules are shown here.
Entry CC(=O)N1C[C@@H](F)[C@H](N(C)c2nc(OC[C@@]34CCCN3C[C@H](F)C4)nc3c(F)c(-c4ccc(F)c5sc(N)c(C#N)c45)c(C(F)(F)F)cc23)C1 , pIC50 reported as 6.00 to 7.00

Entry CC(=O)N1C[C@H](F)[C@@H](N(C)c2nc(OC[C@@]34CCCN3C[C@H](F)C4)nc3c(F)c(-c4ccc(F)c5sc(N)c(C#N)c45)c(C(F)(F)F)cc23)C1 — recorded pIC50 = 6.00 to 7.00

For every record below, what is its pIC50?
1. N#Cc1c(N)sc2c(F)ccc(-c3c(C(F)(F)F)cc4c(N(CCO)C5CC5)nc(OC[C@@]56CCCN5C[C@H](F)C6)nc4c3F)c12
2. CN(c1nc(OC[C@@]23CCCN2C[C@H](F)C3)nc2c(F)c(-c3ccc(F)c4sc(N)c(C#N)c34)c(C(F)(F)F)cc12)[C@H]1CCOC1
3. CCN(CCO)c1nc(OC[C@@H]2CC3(CC3)CN2C)nc2c(F)c(-c3ccc(F)c4sc(N)c(C#N)c34)c(C(F)(F)F)cc12

Output:
6.00 to 7.00
6.00 to 7.00
6.00 to 7.00

Required: pIC50, one value per molecule below.
1. CC(=O)N(C)CCN(C)c1nc(OC[C@@]23CCCN2C[C@H](F)C3)nc2c(F)c(-c3ccc(F)c4sc(N)c(C#N)c34)c(C(F)(F)F)cc12
2. CC(=O)N1CC[C@@H](N(C)c2nc(OC[C@@]34CCCN3C[C@H](F)C4)nc3c(F)c(-c4ccc(F)c5sc(N)c(C#N)c45)c(C(F)(F)F)cc23)[C@H]1C (single isomer, unassigned) [Compound 192]

Output:
1. 6.00 to 7.00
2. < 5.00

Consider the following items and state reported pIC50 for each.
1. N#Cc1c(N)sc2c(F)ccc(-c3c(C(F)(F)F)cc4c(N5CCOCC5)nc(OC[C@@]56CCCN5C[C@H](F)C6)nc4c3F)c12 (single isomer, unassigned) [Compound 199]
2. Nc1nc2c(-c3c(C(F)(F)F)cc4c(N5CC(CO)C5)nc(OCC56CCCN5CCC6)nc4c3F)ccc(F)c2s1
3. N#Cc1c(N)sc2c(F)ccc(-c3c(C(F)(F)F)cc4c(N5CC6CCC(C5)C6O)nc(OC[C@@]56CCCN5C[C@H](F)C6)nc4c3F)c12 (stereo partly shown)

Output:
["< 5.00", "5.00 to 6.00", "6.00 to 7.00"]

* * *

Give measured IC50 for each item. Keep answers brief.
- test target: Avi-KRAS G12R (1-169) GppNHp/RAF1 RBD-3xFLAG (52-151) (Homo sapiens, UniProt P01116, G12R)
- Construct: Avi-KRAS G12R (1-169)
- protocol: Raf1-KRAS G12R-GppNHP disruption HTRF assay (Biological Example 1)
- Format: binding
- experimental parameters: KRAS G12R, GppNHp-loaded; Table 11

N#Cc1c(N)sc2c(F)ccc(-c3c(C(F)(F)F)cc4c(N5CCn6nncc6C5)nc(OC[C@@]56CCCN5C[C@H](F)C6)nc4c3F)c12 has a reported IC50 of 100 to 1000 nM

Value of IC50 reported for the molecule N#Cc1c(N)sc2c(F)ccc(-c3c(C(F)(F)F)cc4c(N5CCCC5)nc(OC[C@@]56CCCN5C[C@H](F)C6)nc4c3F)c12 is 100 to 1000 nM

Form field IC50, entry CN(c1nc(OC[C@@]23CCCN2C[C@H](F)C3)nc2cc(-c3ccc(F)c4sc(N)c(C#N)c34)c(C#N)cc12)[C@H]1C[C@@H](O)C1 : 1000 to 10000 nM

Notebook: C[C@H](O)C1CCN(c2nc(OC[C@@]34CCCN3C[C@H](F)C4)nc3c(F)c(-c4ccc(F)c5sc(N)c(C#N)c45)c(C(F)(F)F)cc23)CC1 , IC50 read as 1000 to 10000 nM

Please look at the following molecule next.
Recorded result, CN(CCO)c1nc(OC[C@@]23CCCN2C[C@H](F)C3)nc2c(F)c(-c3ccc(F)c4sc(N)c(C#N)c34)c(C(F)(F)F)cc12 , IC50: 100 to 1000 nM

* * *

- test target: Avi-KRAS WT (1-169) GppNHp/RAF1 RBD-3xFLAG (52-151) (Homo sapiens, UniProt P01116)
- Construct: Avi-KRAS WT (1-169)
- Sequence (P01116 1-169 isoform P01116-2): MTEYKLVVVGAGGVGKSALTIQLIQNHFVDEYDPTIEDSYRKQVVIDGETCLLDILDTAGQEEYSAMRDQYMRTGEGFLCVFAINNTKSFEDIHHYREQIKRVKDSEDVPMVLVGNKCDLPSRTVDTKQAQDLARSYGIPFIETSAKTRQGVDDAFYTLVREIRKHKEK
- protocol: Raf1-KRAS WT-GppNHP disruption HTRF assay (Biological Example 1)
- Assay type: binding
- experimental parameters: KRAS WT-GppNHp/RAF1 RBD HTRF
measured attribute: IC50

Please review the following examples before continuing.
The reported Avi-KRAS WT (1-169) GppNHp/RAF1 RBD-3xFLAG (52-151) (Homo sapiens, UniProt P01116) IC50 of CN(C)C(=O)c1cn2c(n1)CN(c1nc(OC[C@@]34CCCN3C[C@H](F)C4)nc3c(F)c(-c4ccc(F)c5sc(N)c(C#N)c45)c(C(F)(F)F)cc13)CC2 [Compound 419] is 0.1 to 1 µM

N#Cc1c(N)sc2c(F)ccc(-c3c(C(F)(F)F)cc4c(N5C[C@@H]6C[C@H]5CS6(=O)=O)nc(OC[C@@]56CCCN5C[C@H](F)C6)nc4c3F)c12 [Compound 319] on Avi-KRAS WT (1-169) GppNHp/RAF1 RBD-3xFLAG (52-151) (Homo sapiens, UniProt P01116) gives IC50 = 1 to 10 µM

Avi-KRAS WT (1-169) GppNHp/RAF1 RBD-3xFLAG (52-151) (Homo sapiens, UniProt P01116) IC50 of CCN(c1nc(OC[C@@]23CCCN2C[C@H](F)C3)nc2c(F)c(-c3ccc(F)c4sc(N)c(C#N)c34)c(C(F)(F)F)cc12)[C@H]1CCS(=O)(=O)C1 (atropisomer, axis not shown) [Compound 491] is 1 to 10 µM

Please supply IC50 for each of the following items, keeping them in order.
1. CCN(c1nc(OC[C@@]23CCCN2C[C@H](F)C3)nc2c(F)c(-c3ccc(F)c4sc(N)c(C#N)c34)c(C(F)(F)F)cc12)[C@H]1CCS(=O)(=O)C1 (atropisomer, axis not shown) [Compound 492]
2. C[C@H]1N(C(=O)C2CC2)CC[C@@]1(C)N(C)c1nc(OC[C@@]23CCCN2C[C@H](F)C3)nc2c(F)c(-c3ccc(F)c4sc(N)c(C#N)c34)c(C(F)(F)F)cc12 [Compound 344]
3. CCN(c1nc(OC[C@@]23CCCN2C[C@H](F)C3)nc2c(F)c(-c3ccc(F)c4sc(N)c(C#N)c34)c(C(F)(F)F)cc12)[C@@H]1C[C@H]2CCC(=O)N2C1 (atropisomer, axis not shown) [Compound 532]

Output:
1: < 0.1 µM; 2: 0.1 to 1 µM; 3: 0.1 to 1 µM

# value of IC50, Avi-KRAS WT (1-169) GppNHp/RAF1 RBD-3xFLAG (52-151) (Homo sapiens, UniProt P01116), item CN(c1nc(OC[C@@]23CCCN2C[C@H](F)C3)nc2c(F)c(-c3ccc(F)c4sc(N)c(C#N)c34)c(C(F)(F)F)cc12)[C@@H]1CNC(=O)C1 [Compound 340] = 0.1 to 1 µM
